- Tested on: Influenza A virus
- protocol-notes: Antiviral activity against Influenza A virus (A/Puerto Rico/8/1934(H1N1)) infected in MDCK cells assessed as decrease in virus titer after 48 hrs by MTT assay
- Type: functional, organism-based
readout-kind: EC50 (µM)

1) COc1ccc(CCNc2ncnc3c2ncn3[C@H]2C[C@H]3[C@H](CO)[C@@H]2C[C@@H]3Cl)cc1 : 16
2) OC[C@H]1[C@@H]2C[C@H](n3cnc4c(NC5CCCCC5)ncnc43)[C@H]1C[C@@H]2Cl : 91
3) OC[C@H]1[C@@H]2C[C@H](n3cnc4c(NCCc5ccccc5)ncnc43)[C@H]1C[C@@H]2Cl : 15
4) Nc1ncnc2c1ncn2[C@H]1C[C@H]2[C@H](CO)[C@@H]1C[C@@H]2Cl : 8
5) CCN(CC)CCNc1ncnc2c1ncn2[C@H]1C[C@H]2[C@H](CO)[C@@H]1C[C@@H]2Cl : 20
6) OC[C@@H]1[C@@H]2C[C@H](Cl)[C@H]1C[C@@H]2Nc1ncnc2c1ncn2[C@H]1C[C@H]2[C@H](CO)[C@@H]1C[C@@H]2Cl : 10
7) OC[C@@H](Cc1ccccc1)Nc1ncnc2c1ncn2[C@H]1C[C@H]2[C@H](CO)[C@@H]1C[C@@H]2Cl : 131
8) OC[C@H]1[C@@H]2C[C@H](n3cnc4c(NC5CCCC5)ncnc43)[C@H]1C[C@@H]2Cl : 15
9) OC[C@H]1[C@@H]2C[C@H](n3cnc4c(NC5CC5)ncnc43)[C@H]1C[C@@H]2Cl : 8

* * *

Let's look at some compounds and their measured selectivity ratio.
- protocol-notes: Selectivity index, ratio of CTD50 for African green monkey Vero cells to EC50 for Human coxsackievirus B4 Powers
- Format: toxicity, cell-based
readout-kind: selectivity ratio

1. Nc1ncnc2c1ncn2[C@H]1C[C@H]2[C@H](CO)[C@@H]1C[C@@H]2Cl : 3
2. COc1ccc(CCNc2ncnc3c2ncn3[C@H]2C[C@H]3[C@H](CO)[C@@H]2C[C@@H]3Cl)cc1 : 1
3. CN1CCN(Nc2ncnc3c2ncn3[C@H]2C[C@H]3[C@H](CO)[C@@H]2C[C@@H]3Cl)CC1 : 1
4. OC[C@H]1[C@@H]2C[C@H](n3cnc4c(N5CCOCC5)ncnc43)[C@H]1C[C@@H]2Cl : 1
5. Cc1cn([C@H]2C[C@H]3[C@H](CO)[C@@H]2C[C@@H]3Cl)c(=O)[nH]c1=O : 1
6. OC[C@@H]1[C@@H]2C[C@H](Cl)[C@H]1C[C@@H]2Nc1ncnc2c1ncn2[C@H]1C[C@H]2[C@H](CO)[C@@H]1C[C@@H]2Cl : 3
7. OC[C@H]1[C@@H]2C[C@H](n3cnc4c(NCc5cccnc5)ncnc43)[C@H]1C[C@@H]2Cl : 2

* * *

- protocol-notes: Selectivity index, ratio of CTD50 for African green monkey Vero cells to EC50 for Human coxsackievirus B4 Powers
- Type: toxicity, cell-based
Overview of recorded selectivity ratio for various compounds
readout-kind: selectivity ratio

1) OC[C@H]1[C@@H]2C[C@H](n3cnc4c(NC5CCCCC5)ncnc43)[C@H]1C[C@@H]2Cl : 1
2) CN(C)c1ncnc2c1ncn2[C@H]1C[C@H]2[C@H](CO)[C@@H]1C[C@@H]2Cl : 9
3) CCN(CC)CCCNc1ncnc2c1ncn2[C@H]1C[C@H]2[C@H](CO)[C@@H]1C[C@@H]2Cl : 2
4) OC[C@H]1[C@@H]2C[C@H](n3cnc4c(NCCc5ccccc5)ncnc43)[C@H]1C[C@@H]2Cl : 3
5) OC[C@H]1[C@@H]2C[C@H](n3cnc4c(NCCc5ccc(O)cc5)ncnc43)[C@H]1C[C@@H]2Cl : 6
6) OC[C@@H](Cc1ccccc1)Nc1ncnc2c1ncn2[C@H]1C[C@H]2[C@H](CO)[C@@H]1C[C@@H]2Cl : 141
